study_system: SARS-CoV-2 Main Protease (SARS-CoV-2) (UniProt P0DTD1)
test_conditions: 50.0 µM
The entries below come with measured inhibition values attached.
Use % as the unit, but write only the number.

// solved cases for inhibition follow
[[record]]
molecule = "Cc1cn2c(-c3cccnc3)c(-c3ccc(F)cc3)nc2s1"
measured_result = 31.5

[[record]]
molecule = "CN1CCC(C(=O)NC2CCCCC2NC(=O)c2ccccc2)CC1 (stereo unspecified)"
measured_result = 0

[[record]]
molecule = "N#Cc1ccc(CN2C(=O)C(=O)c3cccc(Br)c32)c(F)c1"
measured_result = 72.1

[[record]]
molecule = "C=CC(=O)N1CC(NCc2c[nH]c3ccc(C#N)cc23)C1"
measured_result = 0

[[record]]
molecule = "O=C(Cc1cccnc1Br)Nc1cccc(OCCn2cncn2)c1"
measured_result = 0


Task: // lookup inhibition | system=SARS-CoV-2 Main Protease (SARS-CoV-2) (UniProt P0DTD1) | key= C=CC(=O)N(C1CCOC1=O)C(C(=O)NC(C)(C)C)c1cccnc1 (stereo unspecified)
Result: 0

###

The entries below come with measured inhibition values attached.
study_system: SARS-CoV-2 Main Protease (SARS-CoV-2)
test_conditions: 50.0 µM
Use % as the unit, but write only the number.

// solved cases for inhibition follow
[[record]]
molecule = "C=CC(=O)N(c1ccc(C(C)(C)CC)cc1)C(C(=O)Nc1ccccc1Br)c1cccnc1 (stereo not given)"
measurement_kind = "inhibition"
measured_result = 8.03

[[record]]
molecule = "COC(=O)C(Cc1ccccc1)C(C)NC(=O)C(C)n1ccnc1 (stereo not given)"
measurement_kind = "inhibition"
measured_result = 0

[[record]]
molecule = "CCC(CC)C(=O)C(C#N)C(=O)Nc1ccc(F)cc1 (stereo not given)"
measurement_kind = "inhibition"
measured_result = 0

[[record]]
molecule = "O=C(N/N=C/c1c[nH]cn1)C1CCCCC1"
measurement_kind = "inhibition"
measured_result = -16.3

[[record]]
molecule = "Cn1cc(S(N)(=O)=O)cc1CC(=O)Nc1cccc(C(=O)NCc2ccccn2)c1"
measurement_kind = "inhibition"
measured_result = 0


Task: // lookup inhibition | system=SARS-CoV-2 Main Protease (SARS-CoV-2) | key= O=C1[C@H](Nc2nccn3cnnc23)CCN1c1cccc(Cl)c1 (stereo in doubt)
Result: 0

Task: Also O=S1(=O)CCC(N2CCN(c3nc(-c4cccnc4)nc4ccccc34)CC2)C1 (stereo not given) ?
Result: 0

###

test_conditions: 20.0 µM
The entries below come with measured relative solubility at 20 uM values attached.

// solved cases for relative solubility at 20 uM follow
[[record]]
compound = "CCC(NC(=O)NCc1cnccn1)c1ccccc1OCC(=O)N1CCCC1 (stereo not given)"
measurement_kind = "relative solubility at 20 uM"
measured_result = 1

[[record]]
compound = "C=CC(=O)N(c1ccc(C(C)(C)C)cc1)C(C(=O)NC1CC1)c1cccnc1 (stereo not given)"
measurement_kind = "relative solubility at 20 uM"
measured_result = 1.01

[[record]]
compound = "C=CC(=O)N(c1ccc(C(C)(C)C)cc1)C(C(=O)NC(C)(C)C)c1cncc(OCC)c1 (stereo not given)"
measurement_kind = "relative solubility at 20 uM"
measured_result = 0.99

[[record]]
compound = "C=CC(=O)N(c1ccc2ncsc2c1)C(C(=O)Nc1ccc(Cl)cc1)c1cccnc1 (stereo not given)"
measurement_kind = "relative solubility at 20 uM"
measured_result = 0.87

[[record]]
compound = "CCCSCC(=O)C(C#N)C(=O)Nc1ccc(F)cc1F (stereo not given)"
measurement_kind = "relative solubility at 20 uM"
measured_result = 1.01


Task: Given the entry O=C(Cc1c[nH]c2ncccc12)N(Cc1c(F)cccc1Cl)c1ccc2[nH]c(=O)[nH]c2c1 , report its measured relative solubility at 20 uM.
Result: 0.95

Task: Also C=CC(=O)N(c1ccc(C2(C)CC2)cc1)C(C(=O)Nc1cccc(F)c1C)c1cccnc1 (stereo not given) ?
Result: 1

meta.source: the COVID Moonshot data (paper PMC11187573)
